- Experiment summary: In vitro anticholinesterase activity against butyrylcholinesterase from torpedo californica
Recorded endpoint: IC50

Please review the entries below; each comes with its answer.
>>> reported_value("C[C@@H]([C@H]1CC[C@H]2[C@@H]3CC[C@H]4C[C@@H](N(C)C(=O)/C=C/c5ccccc5)CC[C@]4(C)[C@H]3CC[C@]12C)N(C)C")
"4.84 µM"
>>> reported_value("CN[C@H]1CC[C@@]2(C)[C@@H](CC[C@@H]3[C@@H]2CC[C@]2(C)[C@@H]([C@H](C)N(C)C(C)=O)CC[C@@H]32)C1")
"16.5 µM"
>>> reported_value("CC(=O)O[C@H]1[C@@H](NC(=O)c2ccccc2)[C@@H](O)C[C@]2(C)[C@H]3CC[C@]4(C)[C@@H]([C@H](C)N(C)C)CC[C@H]4[C@@H]3CC[C@@H]12")
"18 µM"

Q: Identify the reported IC50 for the following entry. C/C=C(\C)C(=O)N[C@@H]1[C@H](OC(C)=O)[C@@H]2CC[C@H]3C4=CC[C@H]([C@H](C)N(C)C)[C@@]4(C)CC[C@@H]3[C@@]2(C)C[C@@H]1O
Ans: 38.4 µM

Q: Identify the reported IC50 for the following entry. C[C@@H]([C@H]1CC[C@H]2[C@@H]3CC[C@H]4C[C@@H](NC(=O)c5ccccc5)[C@@H](O)C[C@]4(C)[C@H]3CC[C@]12C)N(C)C
Ans: 28.9 µM

Q: Identify the reported IC50 for the following entry. C/C(=C\C(=O)N(C)[C@H]1CC[C@@]2(C)[C@@H](CC[C@@H]3[C@@H]2CC[C@]2(C)C([C@H](C)N(C)C)=CC[C@@H]32)C1)C(C)C
Ans: 3.65 µM

====

- Experiment summary: In vitro binding affinity was determined against butyrylcholinesterase from torpedo californica
As shown below, each of these compounds has a reported pKi value.
A value of pKi is the negative decimal logarithm of a concentration given in moles per litre.

Please review the entries below; each comes with its answer.
>>> reported_value("CN[C@H]1CC[C@@]2(C)[C@@H](CC[C@@H]3[C@@H]2CC[C@]2(C)[C@@H]([C@H](C)N(C)C(C)=O)CC[C@@H]32)C1")
5.07
>>> reported_value("C[C@@H]([C@H]1CC[C@H]2[C@@H]3CC[C@H]4C[C@@H](NC(=O)c5ccccc5)[C@@H](O)C[C@]4(C)[C@H]3CC[C@]12C)N(C)C")
4.79

Q: Identify the reported pKi for the following entry. CC(=O)N[C@H]1CC[C@@]2(C)[C@@H](CC[C@@H]3[C@@H]2CC[C@]2(C)[C@@H]([C@H](C)N(C)C)CC[C@@H]32)C1
Ans: 5.12

Q: Identify the reported pKi for the following entry. C/C=C(\C)C(=O)N[C@@H]1[C@H](OC(C)=O)[C@@H]2CC[C@H]3C4=CC[C@H]([C@H](C)N(C)C)[C@@]4(C)CC[C@@H]3[C@@]2(C)C[C@@H]1O
Ans: 4.58

Q: Identify the reported pKi for the following entry. C[C@@H]([C@H]1CC[C@H]2[C@@H]3CC[C@H]4C(=O)C(NC(=O)c5ccccc5)=CC[C@]4(C)[C@H]3CC[C@]12C)N(C)C
Ans: 5.67

Q: Identify the reported pKi for the following entry. C/C(=C\C(=O)N(C)[C@H]1CC[C@@]2(C)[C@@H](CC[C@@H]3[C@@H]2CC[C@]2(C)C([C@H](C)N(C)C)=CC[C@@H]32)C1)C(C)C
Ans: 5.04
